- PROCEDURE_DETAILS: NCI Yeast Anticancer Drug Screen. Data for the rad50 strain (AID 155);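 also: 0% = growth of vehicle-only cultures of the same strain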
- DETAILS: S. cerevisiae rad50 strain growth inhibition; at 50.0 µM
Compounds without any hit were thinned out: in the full panel of roughly 79,000, 15% have a hit. The source made the active and inactive calls. Rule as the data show it: active = growth inhibition above about 70%; inactive = the rest.
Response enum: class 1 (active), class 0 (inactive)

CCC(=O)c1cc(-c2cc(C(=O)CC)[nH]n2)n[nH]1; class 0
O=C1C(O)C(c2ccccc2)c2ccccc2N1c1ccccc1 (stereo unspecified); class 0
CCC[n+]1ccccc1C; class 0
Cn1ccnc1CCc1c(Cl)cccc1Cl; class 0
O=S(=O)(CCl)Nc1ccncc1; class 0
COc1ccc(C(=CCC(C)C2CCC3[C@@H]4C(OC(C)=O)CC5CC(OC(C)=O)CC[C@]5(C)C4CC(OC(C)=O)[C@]23C)c2ccc(OC)cc2)cc1 (stereo partly specified); class 0
Clc1ccc(OCCBr)cc1; class 0
COc1c2occc2cc2ccc(=S)oc12; class 0
Nc1ccc(NC(=S)Nc2ccccc2)cc1; class 0
CC1OC(=O)C(O)=C1O (stereo unspecified); class 0

Answer briefly: the call reported for `NC(=O)C12CC3CC(CC(Br)(C3)C1)C2` in this assay.
class 0

Answer briefly: the call reported for COc1ccccc1NC(=O)C(CC(C(=O)Nc1ccccc1OC)/C(C)=N/NC(=O)c1ccccc1O)/C(C)=N/NC(=O)c1ccccc1O (stereo unspecified) in this assay.
class 0

Answer briefly: the call reported for O=C(N/N=C(/c1nc2ccc(Cl)cc2[nH]c1=O)C(O)c1ccc(Cl)cc1Cl)c1ccncc1 (stereo unspecified) in this assay.
class 0

Answer briefly: the call reported for `CC(C)N(C(=O)c1cccc(C(=O)N(C(C)C)C(C)C)c1)C(C)C` in this assay.
class 0

Answer briefly: the call reported for `NC(=Nc1ccc(S(=O)(=O)Nc2cnccn2)cc1)/N=C(/N)Nc1ccc(Br)cc1` in this assay.
class 0

---

- PROCEDURE_DETAILS: NCI Yeast Anticancer Drug Screen. Data for the mlh1 rad18 strain (AID 175)
- DETAILS: S. cerevisiae mlh1 rad18 strain growth inhibition; at 50.0 µM; stronger effect = higher value
About 79,000 compounds went through this panel and 15% of them were active in at least one assay; those are over-represented in the sample as a whole.
Please provide measured growth inhibition for the entries that follow.
One number for each entry, in %.

CC(C)OC(=O)N1CCCC1; -17.4
O=C1/C(=C/c2ccc(F)cc2)CC/C1=C\c1ccc(F)cc1; -9.3

Consider the additional molecule presented here.
Short answer for CC(=O)/C=C\C1CC2C=CC1C2 (stereo not drawn) : growth inhibition was 31.6

---

- PROCEDURE_DETAILS: NCI Yeast Anticancer Drug Screen. Data for the mlh1 rad18 strain (AID 175)
- DETAILS: S. cerevisiae mlh1 rad18 strain growth inhibition; at 50.0 µM; stronger effect = higher value
Compounds without any hit were thinned out: in the full panel of roughly 79,000, 15% have a hit.
Please provide measured growth inhibition for the entries that follow.
Numbers only, in %.

NS(=O)(=O)c1ccc(NC(=O)Nc2ccc(Cl)cc2[N+](=O)[O-])cc1; 30.4
Nc1ccc(Br)c(N)c1; -24.9
C1CSC(SCCCSC2SCCCS2)SC1; -14.1

Consider the additional compound presented here.
Short answer for O=C(CC(=O)N(C(=O)/C=C\c1ccccc1)c1ccc(Cl)cc1)N1N=C(c2ccccc2)C(N=Nc2cccc([N+](=O)[O-])c2)C1=O (centres undefined) : growth inhibition was 5.5
